target: Glucocorticoid receptor (Homo sapiens) (UniProt P04150); experiment: qHTS assay for small molecule agonists of glucocorticoid receptor signaling (AID 588532); details: HeLa MMTV-bla, beta-lactamase ratio, agonist, 18 h; active compounds read high; percent of dexamethasone control, DMSO zero;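 further: 100% = dexamethasone at 0.1 µM and 0% = DMSO only wells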
Sequence (P04150 whole entry, looked up): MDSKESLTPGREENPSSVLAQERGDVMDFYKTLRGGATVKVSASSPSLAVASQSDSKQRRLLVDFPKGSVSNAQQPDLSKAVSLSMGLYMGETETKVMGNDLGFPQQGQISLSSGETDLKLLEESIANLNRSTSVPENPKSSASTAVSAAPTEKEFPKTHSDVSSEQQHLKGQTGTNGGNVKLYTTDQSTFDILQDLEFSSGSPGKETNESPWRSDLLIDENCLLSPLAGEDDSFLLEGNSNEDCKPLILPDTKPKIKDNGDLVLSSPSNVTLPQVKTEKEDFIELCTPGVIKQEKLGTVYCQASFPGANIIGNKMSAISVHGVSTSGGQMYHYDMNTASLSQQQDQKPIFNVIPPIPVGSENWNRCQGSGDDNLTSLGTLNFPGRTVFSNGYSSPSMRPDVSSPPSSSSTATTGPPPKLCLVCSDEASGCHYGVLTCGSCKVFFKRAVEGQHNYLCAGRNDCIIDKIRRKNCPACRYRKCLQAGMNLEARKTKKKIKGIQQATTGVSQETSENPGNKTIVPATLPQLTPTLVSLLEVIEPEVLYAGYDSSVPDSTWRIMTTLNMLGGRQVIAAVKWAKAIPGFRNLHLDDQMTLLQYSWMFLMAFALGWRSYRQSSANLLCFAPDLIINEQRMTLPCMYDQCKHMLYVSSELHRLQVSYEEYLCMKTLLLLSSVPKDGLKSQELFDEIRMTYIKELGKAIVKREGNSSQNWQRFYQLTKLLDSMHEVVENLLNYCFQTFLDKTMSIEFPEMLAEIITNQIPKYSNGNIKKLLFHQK
Inconclusive results are not listed. Calls of active or inactive are those of the source. The call rests on the fitted dose curve; in most records, active means well fitted curve in the direction sought with a large enough effect in the signal ratio, with a control signal flat; inconclusive means small, poorly fitted or top-dose-only effect, or a change in a side signal; inactive means no such curve, though single readings can be large or run the other way; the % refers to the signal ratio.
assay readout: activation

Incoming: Supply recorded activation for O=C(Nc1ccccc1)c1ccccc1O here.
Outgoing: 2.18% (inactive)

Incoming: Supply recorded activation for C=CCc1ccc(OC)c(OC)c1 here.
Outgoing: -12.3% (inactive)

Incoming: Supply recorded activation for CC1(C)S[C@@H]2[C@H](NC(=O)COc3ccccc3)C(=O)N2[C@H]1C(=O)O here.
Outgoing: 10.3% (inactive)

Incoming: Supply recorded activation for O=S(=O)(O)c1ccccc1 here.
Outgoing: -5.18% (inactive)

Incoming: Supply recorded activation for NC1=NC(S)C2N=CN=C2N1 (configuration not stated) here.
Outgoing: -9.94% (inactive)

Incoming: Supply recorded activation for C1OCOCO1 here.
Outgoing: 3.41% (inactive)

Incoming: Supply recorded activation for CCO here.
Outgoing: -4.6% (inactive)
